experiment_notes: Pharmacokinetics and total colon distribution after oral administration
Format: in vivo
run_parameters: male, C57BL/6, mouse, whole blood; mice, Ex. 36 measured after oral 5 mg/kg of Ex. 47 (Na salt), 24 h; read-out: Mean blood concentration
observed_property: concentration at 24 h (ng/mL)
Kindly provide the numeric value in ng/mL only, without the unit symbol.

Req: Return reported concentration at 24 h; argument: `COc1cc(Nc2cc(Oc3ccc(NC(=O)Nc4cc(C(C)(C)C)cc(NS(C)(=O)=O)c4OC)c4ccccc34)ccn2)cc(OC)c1C(=O)NCCOCCOCCO`
Resp: 0

---

Please provide measured % Viability at 20 μg/mL for the entries that follow.
Tested on: Jurkat cells
experiment_notes: (r) Cell cytotoxicity assay
Type: cell-based, human
run_parameters: 20 μg/mL, 24 hours
Write down the numeric answer in % and omit the unit.

Req: What value of % Viability at 20 μg/mL on Jurkat cells does `COc1cc(Nc2cc(Oc3ccc(NC(=O)Nc4cc(C(C)(C)C)cc(NS(C)(=O)=O)c4OC)c4ccccc34)ccn2)ccc1C(=O)NCCNC(=O)CCC(=O)O` have?
Resp: 91.4

Req: Recorded % Viability at 20 μg/mL for `COc1cc(Nc2cc(Oc3ccc(NC(=O)Nc4cc(C(C)(C)C)cc(NS(C)(=O)=O)c4OC)c4ccccc34)ccn2)ccc1C(=O)N[C@@H]1CCN(C)C1` with Jurkat cells, please?
Resp: 0.7

Req: Lab request: please report % Viability at 20 μg/mL under test system Jurkat cells for `COc1cc(Nc2cc(Oc3ccc(NC(=O)Nc4cc(C(C)(C)C)cc(C(N)=O)c4OC)c4ccccc34)ccn2)ccc1C(=O)O`
Resp: 91.9

Req: Give % Viability at 20 μg/mL (Jurkat cells) of the following compound: `CCC(=O)NS(=O)(=O)c1ccc(Nc2nccc(Oc3ccc(NC(=O)Nc4cc(C(C)(C)C)cc(NS(C)(=O)=O)c4OC)c4ccccc34)n2)cc1OC`
Resp: 65.6

Req: Please tell me: % Viability at 20 μg/mL of `COc1cc(Nc2cc(Oc3ccc(NC(=O)Nc4cc(C(C)(C)C)cc(NS(C)(=O)=O)c4OC)c4ccccc34)ccn2)ccc1C(=O)NCCN1CCN(C(=O)CCC(=O)O)CC1` , system Jurkat cells?
Resp: 95.5

Req: Short answer please: % Viability at 20 μg/mL, Jurkat cells, entry `COc1cc(Nc2cc(Oc3ccc(NC(=O)Nc4cc(C(C)(C)C)cc(NS(C)(=O)=O)c4OC)c4ccccc34)ccn2)ccc1S(=O)(=O)CCCN1CCN(C)CC1`
Resp: 0.7

Req: # get_value(readout= % Viability at 20 μg/mL, system= Jurkat cells) for `COc1cc(Nc2cc(Oc3ccc(NC(=O)Nc4cc(C(C)(C)C)cc(NS(C)(=O)=O)c4OC)c4ccccc34)ccn2)ccc1S(=O)(=O)CCOCCOCCO`
Resp: 67.1

Req: Notebook entry, Jurkat cells assay: % Viability at 20 μg/mL of `COc1cc(Nc2cc(Oc3ccc(NC(=O)Nc4cc(C(C)(C)C)cc(NS(C)(=O)=O)c4OC)c4ccccc34)ccn2)ccc1S(=O)(=O)N(C)CCCN1CCN(C)CC1` = ?
Resp: 0.7

Req: Please state recorded % Viability at 20 μg/mL (tested on Jurkat cells) of `COc1cc(Nc2cc(Oc3ccc(NC(=O)Nc4cc(C(C)(C)C)cc(NS(C)(=O)=O)c4OC)c4ccccc34)ccn2)ccc1C(=O)N(C)CCCN1CCOCC1`
Resp: 54.1

Req: Find % Viability at 20 μg/mL (Jurkat cells) for the entry `COc1cc(Nc2cc(Oc3ccc(NC(=O)Nc4cc(C(C)(C)C)cc(NS(C)(=O)=O)c4OC)c4ccccc34)ccn2)cc(OC)c1C(=O)NCCN1CCOCC1`
Resp: 92.9

Req: Report % Viability at 20 μg/mL for `COc1cc(Nc2cc(Oc3ccc(NC(=O)Nc4cc(C(C)(C)C)cc(NS(C)(=O)=O)c4OC)c4ccccc34)ccn2)ccc1C(=O)NCCN1CCN(C(=O)CC[C@H](N)C(=O)O)CC1` tested on Jurkat cells.
Resp: 93.7

Req: # value lookup — system Jurkat cells, readout % Viability at 20 μg/mL, item `COc1cc(Nc2cc(Oc3ccc(NC(=O)Nc4cc(NS(C)(=O)=O)cc(C(C)(C)C)c4)c4ccccc34)ccn2)ccc1C(=O)NCCN1CCN(C)CC1`
Resp: 14.0

---

Tested on: Jurkat cells
experiment_notes: (r) Cell cytotoxicity assay
Type: cell-based, human
run_parameters: 20 μg/mL, 24 hours
I'd appreciate it if you could supply % Viability at 20 μg/mL values for the items below.
Give a bare numeral; the unit % is implied.

Req: I have this molecule here, `COc1cc(Nc2cc(Oc3ccc(NC(=O)Nc4cc(C(C)(C)C)cc(NS(C)(=O)=O)c4OC)c4ccccc34)ccn2)cc(OC)c1C(=O)NC1CCN(C)CC1` , and I need its recorded % Viability at 20 μg/mL.
Resp: 64.1

Req: For `COc1cc(Nc2cc(Oc3ccc(NC(=O)Nc4cc(C(C)(C)C)cc(NS(C)(=O)=O)c4OC)c4ccccc34)ccn2)cc(OC)c1C(=O)NCCOCCOCCO` , what is its reported % Viability at 20 μg/mL?
Resp: 84.9

Req: # get_value(readout='% Viability at 20 μg/mL', item= `COc1cc(Nc2cc(Oc3ccc(NC(=O)Nc4cc(C(C)(C)C)cc(NS(C)(=O)=O)c4OC)c4ccccc34)ccn2)ccc1C(=O)NCCN1CCN(C)CC1(C)C` )
Resp: 0.6

Req: Entry `COc1cc(Nc2cc(Oc3ccc(NC(=O)Nc4cc(C(C)(C)C)cc(NS(C)(=O)=O)c4OC)c4ccccc34)ccn2)ccc1C(=O)NCCN1CC[C@@H](O)C1` has what % Viability at 20 μg/mL?
Resp: 0.9

Req: Find the recorded % Viability at 20 μg/mL belonging to `COc1cc(Nc2nccc(Oc3ccc(NC(=O)Nc4cc(C(C)(C)C)cc(NS(C)(=O)=O)c4OC)c4ccccc34)n2)ccc1C(=O)NCCCN1CCN(C)CC1` and report it.
Resp: 0.6

Req: Fill in: % Viability at 20 μg/mL of `COc1cc(Nc2cc(Oc3ccc(NC(=O)Nc4cc(C(C)(C)C)cc(N(CCO)S(C)(=O)=O)c4OC)c4ccccc34)ccn2)ccc1C(=O)NCCN1CC[S+]([O-])CC1` is ___
Resp: 54.2

Req: Reported % Viability at 20 μg/mL, molecule `COc1cc(Nc2cc(Oc3ccc(NC(=O)Nc4cc(C(C)(C)C)cc(NS(C)(=O)=O)c4OC)c4ccccc34)ccn2)cc(OC)c1C(=O)NCCN1CCN(CCO)CC1` : ____
Resp: 28.9

Req: Can you look up the measured % Viability at 20 μg/mL of `COc1cc(Nc2cc(Oc3ccc(NC(=O)Nc4cc(C(C)(C)C)cc(NS(C)(=O)=O)c4OC)c4ccccc34)ccn2)cc(OC)c1C(=O)NCCN(C)C` for me?
Resp: 1.5

Req: Which % Viability at 20 μg/mL value belongs to `COc1cc(Nc2cc(Oc3ccc(NC(=O)Nc4cc(C(C)(C)C)cc(NS(C)(=O)=O)c4OC)c4ccccc34)ccn2)ccc1C(=O)NCC[N+]1([O-])CCOCC1` ?
Resp: 69.3

Req: So what's the measured % Viability at 20 μg/mL for this one? `COc1cc(Nc2cc(Oc3ccc(NC(=O)Nc4cc(C(C)(C)C)cc(NS(C)(=O)=O)c4OC)c4ccccc34)ccn2)cc(OC)c1C(=O)NCC1CCN(C)CC1`
Resp: 75.8

Req: Dear colleague, I am looking for the recorded % Viability at 20 μg/mL of the following molecule: `COc1cc(Nc2cc(Oc3ccc(NC(=O)Nc4cc(C(C)(C)C)cc(NS(C)(=O)=O)c4OC)c4ccccc34)ccn2)ccc1C(=O)NCCC1(O)CCN(C)CC1`
Resp: 0.3

---

Kindly state IC50 for each of the entries shown.
// units = nM; emit number, no label

Req: # returns recorded IC50 (system: Syk (Homo sapiens (Human), UniProt P43405)) for `COc1cc(Nc2cc(Oc3ccc(NC(=O)Nc4cc(C(C)(C)C)cc(NS(C)(=O)=O)c4OC)c4ccccc34)ccn2)ccc1C(=O)NCCN1CCCCC1`
Resp: 172

Req: Request: IC50, test system Syk (Homo sapiens (Human), UniProt P43405), entry `COc1cc(Nc2cc(Oc3ccc(NC(=O)Nc4cc(C(C)(C)C)cc(NS(C)(=O)=O)c4OC)c4ccccc34)ccn2)cc(OC)c1C(=O)NCCN1CCN(C)CC1`
Resp: 138

Req: Find IC50 (Syk (Homo sapiens (Human), UniProt P43405)) for the entry COc1cc(Nc2cc(Oc3ccc(NC(=O)Nc4cc(C(C)(C)C)cc(NS(C)(=O)=O)c4OC)c4ccccc34)ccn2)ccc1C(=O)NCCN1CCS(=O)(=O)CC1 [17(r)]
Resp: 102

Req: For the record `COc1cc(Nc2cc(Oc3ccc(NC(=O)Nc4cc(C(C)(C)C)cc(NS(C)(=O)=O)c4OC)c4ccccc34)ccn2)ccc1C(=O)NCCN1CCOCC1(C)C` , what value of IC50 is listed for Syk (Homo sapiens (Human), UniProt P43405)?
Resp: 336

Req: Request - read-out IC50 | tested on Syk (Homo sapiens (Human), UniProt P43405) | compound `COc1cc(Nc2cc(Oc3ccc(NC(=O)Nc4cc(C(C)(C)C)cc(NC(=O)CO)c4OC)c4ccccc34)ccn2)ccc1C(=O)NCCN1CC[S+]([O-])CC1`
Resp: 325

Req: Return IC50 measured with Syk (Homo sapiens (Human), UniProt P43405) given this compound: `COc1cc(Nc2cc(Oc3ccc(NC(=O)Nc4cc(C(C)(C)C)cc(NS(C)(=O)=O)c4OC)c4ccccc34)ccn2)ccc1C(=O)NCC1CCN(C)CC1`
Resp: 85
